Target sequence: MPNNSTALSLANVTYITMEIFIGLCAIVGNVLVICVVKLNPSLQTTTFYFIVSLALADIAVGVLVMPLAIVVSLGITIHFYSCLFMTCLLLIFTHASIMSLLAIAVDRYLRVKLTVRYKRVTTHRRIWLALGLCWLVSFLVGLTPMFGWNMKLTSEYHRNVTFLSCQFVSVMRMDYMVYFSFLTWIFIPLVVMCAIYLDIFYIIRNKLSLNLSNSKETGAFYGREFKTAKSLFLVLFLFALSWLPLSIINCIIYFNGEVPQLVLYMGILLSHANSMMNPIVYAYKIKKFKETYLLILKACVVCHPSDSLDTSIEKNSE
Attribute Measured: pIC50
Note on units: pIC50 is unitless, being -log10 of a concentration expressed in mol/L.

Given COC(=O)C1=C2C=CN(C)C=C2c2nc(-c3ccccc3)nn2C1 , state its recorded pIC50.
7.89

====

Molecular target: human A1 adenosine receptor (Homo sapiens, UniProt P30542)
Sequence (P30542 1-326): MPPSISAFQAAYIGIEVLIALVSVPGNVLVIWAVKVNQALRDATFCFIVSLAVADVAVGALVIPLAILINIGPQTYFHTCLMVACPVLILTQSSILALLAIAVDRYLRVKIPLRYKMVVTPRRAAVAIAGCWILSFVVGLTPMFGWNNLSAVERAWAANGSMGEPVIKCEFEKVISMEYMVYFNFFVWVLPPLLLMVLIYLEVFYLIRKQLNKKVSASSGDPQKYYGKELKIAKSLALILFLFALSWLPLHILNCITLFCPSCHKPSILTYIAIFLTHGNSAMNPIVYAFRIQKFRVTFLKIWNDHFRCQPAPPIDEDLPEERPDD
Attribute Measured: pIC50
Note on units: pIC50 is unitless, being -log10 of a concentration expressed in mol/L.

Given COC(=O)C1=C2C=CN(C)C=C2c2nc(-c3ccccc3)nn2C1 , state its recorded pIC50.
5.28

Sourced from patent US5780481A
